Consider the following binders and their measured koff readings.
- system name: T1, soluble CD19-HSA fusion protein (CD19 extracellular domains fused to human serum albumin) (human, UniProt P15391 20-291)
- T1 construct: extracellular domain; also called recombinant CD19 antigen; not shown: human serum albumin
- T1 sequence (looked up): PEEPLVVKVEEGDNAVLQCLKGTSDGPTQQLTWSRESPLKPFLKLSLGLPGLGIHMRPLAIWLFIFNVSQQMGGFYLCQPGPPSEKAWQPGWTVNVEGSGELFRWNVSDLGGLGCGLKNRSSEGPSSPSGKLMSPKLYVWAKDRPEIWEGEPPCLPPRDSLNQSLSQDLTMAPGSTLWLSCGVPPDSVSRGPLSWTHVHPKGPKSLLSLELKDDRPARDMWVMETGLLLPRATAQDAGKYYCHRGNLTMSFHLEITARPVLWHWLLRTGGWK
- test method notes: BLI (ForteBio Octet RED384), IgG on AHC sensors, 100 nM soluble CD19-HSA, 1:1 model
Provide only the numeric value, understood in s⁻¹.

# binder, units, koff
records = [
    ("Antibody 7 (antibody, V domains shown, Human IgG produced in Adimab yeast, purified on Protein A; Has the VH and VL of #7 scFv; also called CD19 Antibody 7) VH: QVQLVESGGGVVQPGRSLRLSCAASGFTFSSYGMHWVRQAPGKGLEWVALIWYDGSNKYYADSVKGRFTISRDNSKNTLYLQMNSLRAEDTAVYYCAKPVEGLLRGFDYWGQGTLVTVSS VL: EIVMTQSPGTLSLSPGERATLSCRASQSVSSSYLAWYQQKPGQAPRLLIYGASSRATGIPDRFSGSGSGTDFTLTISRLEPEDFAVYYCQQAGGVPPFTFGGGTKVEIK", "s⁻¹", 0.00105),
    ("Antibody 2 (antibody, V domains shown, Human IgG produced in Adimab yeast, purified on Protein A; also called CD19 Antibody 2) VH: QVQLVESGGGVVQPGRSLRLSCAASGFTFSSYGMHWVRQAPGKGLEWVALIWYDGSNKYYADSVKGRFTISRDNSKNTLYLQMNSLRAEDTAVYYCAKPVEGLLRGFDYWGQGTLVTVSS VL: EIVLTQSPGTLSLSPGERATLSCRASQSVSSSYLAWYQQKPGQAPRLLIYGASSRATGIPDRFSGSGSGTDFTLTISRLEPEDFAVYYCQQAGAVPITFGGGTKVEIK", "s⁻¹", 0.000554),
]

Now, please, on to the next binder.
What does the data say about its koff? Entry: Antibody 5 (antibody, V domains shown, Human IgG produced in Adimab yeast, purified on Protein A; Has the VH and VL of #5 scFv; also called CD19 Antibody 5) VH: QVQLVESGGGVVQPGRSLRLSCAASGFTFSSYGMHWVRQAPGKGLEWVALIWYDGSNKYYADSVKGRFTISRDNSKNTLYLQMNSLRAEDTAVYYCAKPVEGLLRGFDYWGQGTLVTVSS VL: EIVLTQSPGTLSLSPGERATLSCRASQSVSSSYLAWYQQKPGQAPRLLIYGASSRATGIPDRFSGSGSGTDFTLTISRLEPEDFAVYYCQQAGGVPPLTFGGGTKVEIK
0.000785
